B1: MATN2 (parent)
chain: TDDSYSCHCLKGFTLNPDKKTCRR

Variants of: B1
Assay: protein stability index of a GFP-peptide fusion (GPS, HEK-293T) (PSI 1-6); higher = more stable;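 note: lentivirally expressed fusions sorted by FACS into six bins by GFP to DsRed ratio, PSI derived from sequencing read proportions per bin multiplied by bin number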
Details: c terminus: a fixed tail appended
Measured Quantity: protein stability index
Keep it simple and answer with nothing but the number.

Below are worked cases with known answers.
[
  {
    "Mutation Name": "D18T",
    "protein stability index": 2.24
  },
  {
    "Mutation Name": "K20N",
    "protein stability index": 2.04
  },
  {
    "Mutation Name": "N16M",
    "protein stability index": 2.65
  },
  {
    "Mutation Name": "K11M",
    "protein stability index": 1.61
  },
  {
    "Mutation Name": "L10S",
    "protein stability index": 2.55
  }
]

Could you tell me which protein stability index is on file for C9S ?
4.48

Would you mind telling me what protein stability index value was observed for C22I ?
2.09

Recorded protein stability index for D2N , please?
2.32

Which protein stability index is reported for this variant? P17V
2.92

I am curious: what protein stability index value has been reported for T1F ?
2.21

Give the measured protein stability index of R24N .
3.25
